For each entry below, report its pKd value.
# system: T1, EsCas13d, nuclease-dead (Eubacterium siraeum, UniProt B0MS50, R295A;H300A;R849A;H854A)
# T1 sequence: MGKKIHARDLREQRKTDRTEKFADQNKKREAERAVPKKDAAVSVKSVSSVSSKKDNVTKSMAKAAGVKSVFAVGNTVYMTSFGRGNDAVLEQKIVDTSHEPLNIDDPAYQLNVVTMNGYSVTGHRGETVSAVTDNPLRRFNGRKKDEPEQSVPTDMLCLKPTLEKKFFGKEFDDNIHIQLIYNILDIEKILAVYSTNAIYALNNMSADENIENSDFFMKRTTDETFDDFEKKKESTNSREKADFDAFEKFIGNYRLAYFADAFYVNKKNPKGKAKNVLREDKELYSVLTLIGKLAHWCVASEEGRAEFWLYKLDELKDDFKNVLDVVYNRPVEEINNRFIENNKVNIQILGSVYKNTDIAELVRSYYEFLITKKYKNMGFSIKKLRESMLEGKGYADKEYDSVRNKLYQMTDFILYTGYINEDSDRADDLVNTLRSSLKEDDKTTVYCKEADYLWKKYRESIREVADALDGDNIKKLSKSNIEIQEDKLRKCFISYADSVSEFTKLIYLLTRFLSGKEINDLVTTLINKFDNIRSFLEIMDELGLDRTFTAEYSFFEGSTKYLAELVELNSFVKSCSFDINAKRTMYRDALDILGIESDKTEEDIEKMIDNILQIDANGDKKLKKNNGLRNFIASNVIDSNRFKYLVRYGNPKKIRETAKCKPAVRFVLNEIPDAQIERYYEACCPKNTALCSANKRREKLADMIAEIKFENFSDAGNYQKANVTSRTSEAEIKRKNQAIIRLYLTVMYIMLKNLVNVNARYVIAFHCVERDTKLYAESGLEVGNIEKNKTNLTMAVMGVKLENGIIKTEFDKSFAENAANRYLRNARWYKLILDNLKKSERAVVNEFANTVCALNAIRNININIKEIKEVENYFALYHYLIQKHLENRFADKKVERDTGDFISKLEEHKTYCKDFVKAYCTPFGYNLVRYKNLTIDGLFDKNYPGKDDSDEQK
# method-notes: crRNA (strand 1, pre-loaded); Mg2+; 40 mM Tris-HCl pH 7.5, 150 mM NaCl, 6 mM MgCl2, 1 mM DTT, 0.1% Tween-20, 0.2 mg/ml BSA; 25 C; 10 min per concentration, then washed
# study-conditions: tags: His6-TwinStrep-SUMO cleaved; N-terminal SNAP kept (SNAP-Surface 488); label: 3' end held by stalled T7 RNA polymerase
Expect pKd as a plain number equal to -log10 of the molar concentration.

Per the record, target 3 C1G,U7G (mixed) RNA 1: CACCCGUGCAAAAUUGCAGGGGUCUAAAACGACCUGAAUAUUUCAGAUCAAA RNA 2: GGGAAUGGAUCCACAUCUACGAAUUCGUUUUUGAUCUGAAAUAUGCAGGUGUGCAGAUCGGAAGAGCACACGU has pKd of 7.54

// pKd lookup, binder = target 3 insU 3' of 9,insA 3' of 7 (mixed) RNA 1: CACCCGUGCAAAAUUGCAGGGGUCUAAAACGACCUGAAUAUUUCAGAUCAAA RNA 2: GGGAAUGGAUCCACAUCUACGAAUUCGUUUUUGAUCUGAAAUAUUUACAGGUCUGCAGAUCGGAAGAGCACACGU , result: 7.29

Record target 1 insG 3' of 11,insA 3' of 7 (mixed) RNA 1: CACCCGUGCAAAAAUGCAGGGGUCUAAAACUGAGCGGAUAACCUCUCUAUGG RNA 2: GGGAAUGGAUCCACAUCUACGAAUUCGUACCAUAGAGAGGUGUAUCACGCUCACCGAGAUCGGAAGAGCACACGU . Reported pKd: 7.66

// sample target 2 MT 5'PFS GAU 3'PFS AGG (mixed) RNA 1: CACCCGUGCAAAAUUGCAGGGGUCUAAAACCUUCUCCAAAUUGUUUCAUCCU RNA 2: GGGAAUGGAUCCACAUCUACGAAUUCGAUAGGAUGAAACAAUUUGGAGAAGAGGAGAUCGGAAGAGCACACGU , its pKd was 7.98

pKd reading for target 2 MT 5'PFS ACG 3'PFS CAC (mixed) RNA 1: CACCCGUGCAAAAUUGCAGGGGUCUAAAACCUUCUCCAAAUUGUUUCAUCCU RNA 2: GGGAAUGGAUCCACAUCUACGAAUUCACGAGGAUGAAACAAUUUGGAGAAGCACAGAUCGGAAGAGCACACGU : 8.24

What the record says about target 3 insG 3' of 5,insU 3' of 3 (mixed) RNA 1: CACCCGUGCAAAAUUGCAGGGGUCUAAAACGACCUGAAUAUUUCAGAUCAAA RNA 2: GGGAAUGGAUCCACAUCUACGAAUUCGUUUUUGAUCUGAAAUAUUCAGGGUUCUGCAGAUCGGAAGAGCACACGU : pKd is 7.52

Consider target 3 G4A,U8G (mixed) RNA 1: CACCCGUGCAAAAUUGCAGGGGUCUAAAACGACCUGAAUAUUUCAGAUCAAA RNA 2: GGGAAUGGAUCCACAUCUACGAAUUCGUUUUUGAUCUGAAAUAGUCAAGUCUGCAGAUCGGAAGAGCACACGU . Its measured pKd is 7.11

Form field pKd, entry target 2 MT 5'PFS CUA 3'PFS UCU (mixed) RNA 1: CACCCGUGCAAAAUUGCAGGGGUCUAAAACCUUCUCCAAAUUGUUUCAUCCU RNA 2: GGGAAUGGAUCCACAUCUACGAAUUCCUAAGGAUGAAACAAUUUGGAGAAGUCUAGAUCGGAAGAGCACACGU : 8.44

Sample target 2 MT 5'PFS UAC 3'PFS UAC (mixed) RNA 1: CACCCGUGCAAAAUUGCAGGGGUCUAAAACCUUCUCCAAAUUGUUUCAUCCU RNA 2: GGGAAUGGAUCCACAUCUACGAAUUCUACAGGAUGAAACAAUUUGGAGAAGUACAGAUCGGAAGAGCACACGU ; pKd observed: 8.21

Field pKd (entry target 2 MT 5'PFS ACA 3'PFS CCG (mixed) RNA 1: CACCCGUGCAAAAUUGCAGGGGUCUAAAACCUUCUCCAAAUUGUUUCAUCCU RNA 2: GGGAAUGGAUCCACAUCUACGAAUUCACAAGGAUGAAACAAUUUGGAGAAGCCGAGAUCGGAAGAGCACACGU ) reads 8.20

Lookup result for target 1 insU 3' of 18,insG 3' of 11 (mixed) RNA 1: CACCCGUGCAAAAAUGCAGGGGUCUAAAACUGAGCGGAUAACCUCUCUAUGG RNA 2: GGGAAUGGAUCCACAUCUACGAAUUCGUACCAUAUGAGAGGUGUAUCCGCUCACCGAGAUCGGAAGAGCACACGU ; measured pKd: 7.11

// pKd value for target 1 insC 3' of 15,insG 3' of 4 (mixed) RNA 1: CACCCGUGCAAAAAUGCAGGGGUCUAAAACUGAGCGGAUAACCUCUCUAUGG RNA 2: GGGAAUGGAUCCACAUCUACGAAUUCGUACCAUAGAGCAGGUUAUCCGCGUCACCGAGAUCGGAAGAGCACACGU : 7.97

For target 1 A1U,U19C (mixed) RNA 1: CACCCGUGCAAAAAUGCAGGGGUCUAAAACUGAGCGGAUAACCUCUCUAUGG RNA 2: GGGAAUGGAUCCACAUCUACGAAUUCGUACCACAGAGAGGUUAUCCGCUCUCCGAGAUCGGAAGAGCACACGU the binder record lists pKd as 7.65

Kindly note the recorded pKd for target 1 insA 3' of 8,insU 3' of 6 (mixed) RNA 1: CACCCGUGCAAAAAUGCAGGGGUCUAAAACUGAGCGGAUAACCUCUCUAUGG RNA 2: GGGAAUGGAUCCACAUCUACGAAUUCGUACCAUAGAGAGGUUAUACCUGCUCACCGAGAUCGGAAGAGCACACGU , which is 7.63
